study_target: Luciferin 4-monooxygenase (Photinus pyralis) (UniProt P08659)
Sequence (P08659 whole entry, looked up): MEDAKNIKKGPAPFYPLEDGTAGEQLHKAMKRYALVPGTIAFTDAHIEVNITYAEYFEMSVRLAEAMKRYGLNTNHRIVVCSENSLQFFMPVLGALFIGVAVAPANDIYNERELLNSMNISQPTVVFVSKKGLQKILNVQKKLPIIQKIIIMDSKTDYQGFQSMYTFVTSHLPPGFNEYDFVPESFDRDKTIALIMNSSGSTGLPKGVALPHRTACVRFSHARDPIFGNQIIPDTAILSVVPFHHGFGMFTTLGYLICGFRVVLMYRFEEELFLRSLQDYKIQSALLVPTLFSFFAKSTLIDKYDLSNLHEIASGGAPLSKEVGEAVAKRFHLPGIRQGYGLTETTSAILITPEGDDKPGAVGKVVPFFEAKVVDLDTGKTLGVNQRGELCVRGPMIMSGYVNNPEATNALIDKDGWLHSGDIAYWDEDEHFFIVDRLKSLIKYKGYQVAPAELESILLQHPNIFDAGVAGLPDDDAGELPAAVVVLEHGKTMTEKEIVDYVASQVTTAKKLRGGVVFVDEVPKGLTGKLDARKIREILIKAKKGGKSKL
method_description: qHTS profiling assay for firefly luciferase inhibitor/activator using purifed enzyme and Km concentrations of substrates (counterscreen for miR-21 project); note: nearly all actives have a fitted effect of over 55% in size;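 for activity change, negative = inhibition: plate controls were vehicle for no effect and reference inhibitor for full effect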
conditions_used: purified FLuc, luminescence inhibition; series mostly up to 57.5 µM
The whole screen tested about 360,000 compounds, of which about 25,000 (6.9%) were called active. Another 9% or so got no clear call; they are omitted. The sample holds actives, similar compounds and a random draw of the others, so the mix is not that of the screen.
test_readout: activity change, negative = inhibition

>  <input_smiles>
CC(C)NS(=O)(=O)c1ccc(OCC(=O)Nc2ccc3c(c2)OCCO3)cc1

>  <test_readout>
activity change, negative = inhibition

>  <recorded_measurement>
3.95% [at 2.3 µM] (inactive)

$$$$
>  <input_smiles>
Cc1cc2c(=O)n(C)c(SCC(=O)c3cc4ccccc4o3)nc2s1

>  <test_readout>
activity change, negative = inhibition

>  <recorded_measurement>
4.57% [at 2.3 µM] (inactive)

$$$$
>  <input_smiles>
COCCn1c(C)cc(C(=O)CSc2ncnc3sc4c(c23)CCC4)c1C

>  <test_readout>
activity change, negative = inhibition

>  <recorded_measurement>
8.69% [at 2.3 µM] (inactive)

$$$$
>  <input_smiles>
CNC(=O)n1ccc(C(=O)N2CCCCC2)n1

>  <test_readout>
activity change, negative = inhibition

>  <recorded_measurement>
2.3% [at 2.3 µM] (inactive)

$$$$
>  <input_smiles>
CCCC[C@]12Cc3cc(OC)c(OC)cc3C(O1)C1=C(CC3(CCCCC3)OC1=O)O2

>  <test_readout>
activity change, negative = inhibition

>  <recorded_measurement>
-0.0926% [at 11.5 µM] (inactive)

$$$$
>  <input_smiles>
Cc1cc2c(c(=O)n1Cc1ccccc1)C1O[C@](CCCCN3C(=O)c4ccccc4C3=O)(Cc3ccccc31)O2

>  <test_readout>
activity change, negative = inhibition

>  <recorded_measurement>
4.34% [at 11.5 µM] (inactive)

$$$$

* * *

study_target: Luciferin 4-monooxygenase (Photinus pyralis) (UniProt P08659)
method_description: qHTS profiling assay for firefly luciferase inhibitor/activator using purifed enzyme and Km concentrations of substrates (counterscreen for miR-21 project); note: nearly all actives have a fitted effect of over 55% in size; note: potency is the fitted concentration of half-maximal effect
conditions_used: purified FLuc, luminescence inhibition; series mostly up to 57.5 µM
Hit rate of the full screen: of about 360,000 compounds, about 25,000 (6.9%) were called active. About 9% were inconclusive and are not listed. For the sample, actives were picked, then their nearest neighbours and some compounds at random.

>  <compound>
CN(CC(=O)Nc1ccccc1F)S(=O)(=O)c1ccc2c(c1)c(=O)n(C)c(=O)n2C

>  <study_target>
Luciferin 4-monooxygenase (Photinus pyralis) (UniProt P08659)

>  <Potency>
inactive

$$$$
>  <compound>
Cn1nnnc1SCCNCc1ccc(Cl)c(Cl)c1

>  <study_target>
Luciferin 4-monooxygenase (Photinus pyralis) (UniProt P08659)

>  <Potency>
inactive

$$$$
>  <compound>
CCOc1ccc(NC(=O)N(CCC(C)C)C(C)c2ccco2)cc1 (stereo not drawn)

>  <study_target>
Luciferin 4-monooxygenase (Photinus pyralis) (UniProt P08659)

>  <Potency>
inactive

$$$$
>  <compound>
CCc1ccc(NC2Nc3cc(C)nn3S2)cc1 (stereo not drawn)

>  <study_target>
Luciferin 4-monooxygenase (Photinus pyralis) (UniProt P08659)

>  <Potency>
4.78 µM (active)

$$$$
>  <compound>
CCOc1ccc(-n2c(SCC(N)=O)nnc2-c2ccco2)cc1

>  <study_target>
Luciferin 4-monooxygenase (Photinus pyralis) (UniProt P08659)

>  <Potency>
inactive

$$$$
>  <compound>
CCOc1ccc(NC(=O)c2cc(C)nc3ccccc23)cc1

>  <study_target>
Luciferin 4-monooxygenase (Photinus pyralis) (UniProt P08659)

>  <Potency>
inactive

$$$$
>  <compound>
CCc1nnc(SCC(=O)Nc2cc(OC)ccc2OC)nc1CC

>  <study_target>
Luciferin 4-monooxygenase (Photinus pyralis) (UniProt P08659)

>  <Potency>
inactive

$$$$
>  <compound>
CCOc1ccc(-c2nnc(-c3ccco3)o2)cc1

>  <study_target>
Luciferin 4-monooxygenase (Photinus pyralis) (UniProt P08659)

>  <Potency>
0.953 µM (active)

$$$$
>  <compound>
Cc1ccccc1C(=O)NC(=S)Nc1ccc(N2CCN(C(=O)c3ccccc3)CC2)cc1

>  <study_target>
Luciferin 4-monooxygenase (Photinus pyralis) (UniProt P08659)

>  <Potency>
inactive

$$$$
>  <compound>
CC(Oc1ccccc1F)C(=O)NN (stereo not drawn)

>  <study_target>
Luciferin 4-monooxygenase (Photinus pyralis) (UniProt P08659)

>  <Potency>
inactive

$$$$
>  <compound>
COC(=O)c1ccccc1NC(=S)NC(=O)c1ccccc1F

>  <study_target>
Luciferin 4-monooxygenase (Photinus pyralis) (UniProt P08659)

>  <Potency>
inactive

$$$$
>  <compound>
O=C(NC(=S)Nc1ccccc1C(=O)O)c1ccc(-c2ccc(Br)cc2)o1

>  <study_target>
Luciferin 4-monooxygenase (Photinus pyralis) (UniProt P08659)

>  <Potency>
26.9 µM (active)

$$$$
>  <compound>
O=C(Nc1ccc(S(=O)(=O)N2CCc3ccccc3C2)cc1)c1ccccc1

>  <study_target>
Luciferin 4-monooxygenase (Photinus pyralis) (UniProt P08659)

>  <Potency>
inactive

$$$$
>  <compound>
COc1ccc(C(=O)Nc2ccc(N3CCC(C)CC3)cc2)cc1Br

>  <study_target>
Luciferin 4-monooxygenase (Photinus pyralis) (UniProt P08659)

>  <Potency>
inactive

$$$$
>  <compound>
COc1cccc(C(=O)Nc2cc3c(cc2Br)OCCCO3)c1

>  <study_target>
Luciferin 4-monooxygenase (Photinus pyralis) (UniProt P08659)

>  <Potency>
4.78 µM (active)

$$$$
>  <compound>
COc1ccc(C2COC(=O)C2=N)c(NC(=O)c2ccccc2)c1 (stereo not drawn)

>  <study_target>
Luciferin 4-monooxygenase (Photinus pyralis) (UniProt P08659)

>  <Potency>
inactive

$$$$
>  <compound>
CCOc1ccc(N2CC(c3nc4ccccc4n3CCOc3ccc(OC)cc3)CC2=O)cc1 (stereo not drawn)

>  <study_target>
Luciferin 4-monooxygenase (Photinus pyralis) (UniProt P08659)

>  <Potency>
inactive

$$$$
>  <compound>
CC1Cc2ccccc2N1S(=O)(=O)c1cccc(C(=O)NCC(c2ccco2)N2CCCC2)c1 (stereo not drawn)

>  <study_target>
Luciferin 4-monooxygenase (Photinus pyralis) (UniProt P08659)

>  <Potency>
inactive

$$$$
>  <compound>
CCOC(=O)c1sc(/N=C/C2=C(O)CC(C)(C)CC2=O)c(C(=O)OCC)c1C

>  <study_target>
Luciferin 4-monooxygenase (Photinus pyralis) (UniProt P08659)

>  <Potency>
19 µM (active)

$$$$
>  <compound>
COc1cccc(C(=O)Nc2ccc(N3CCCC3)cc2)c1

>  <study_target>
Luciferin 4-monooxygenase (Photinus pyralis) (UniProt P08659)

>  <Potency>
4.26 µM (active)

$$$$
>  <compound>
CCOC(=O)c1ccc(NC2Nc3cc(C)nn3S2)cc1 (stereo not drawn)

>  <study_target>
Luciferin 4-monooxygenase (Photinus pyralis) (UniProt P08659)

>  <Potency>
inactive

$$$$
>  <compound>
O=C(Nc1ccc(C(=O)O)c(O)c1)c1ccccc1

>  <study_target>
Luciferin 4-monooxygenase (Photinus pyralis) (UniProt P08659)

>  <Potency>
15.1 µM (active)

$$$$
>  <compound>
COc1cc(OC)c(NC(=O)c2cc(S(=O)(=O)N3CCCC3)cn2C)cc1Cl

>  <study_target>
Luciferin 4-monooxygenase (Photinus pyralis) (UniProt P08659)

>  <Potency>
inactive

$$$$

* * *

study_target: Luciferin 4-monooxygenase (Photinus pyralis)
method_description: qHTS profiling assay for firefly luciferase inhibitor/activator using purifed enzyme and Km concentrations of substrates (counterscreen for miR-21 project); note: nearly all actives have a fitted effect of over 55% in size
conditions_used: purified FLuc, luminescence inhibition; series mostly up to 57.5 µM
From the text: MLPCN Grant: 1 R21 NS059478-01 (miR-21 grant) Assay Provider: NCGC NCGC Assay Overview: Firefly (Photinus pyralis) luciferase is one of the most commonly used transcriptional reporters for a number of reasons. […] Although light produced in a bioluminescence reaction is of lower intensity than that produced during fluorescence emission, this is offset by little to no background light inherent to luminescent assays. […]
Out of some 360,000 compounds screened, about 25,000 (6.9%) were called active. Another 9% or so got no clear call; they are omitted. Calls follow the shape of the dose curve; as a rule, active = well fitted inhibition curve with a large enough effect; inconclusive = small, poorly fitted or top-dose-only effect; inactive = flat fitted curve, though single readings scatter. This excerpt belongs to a sample that is enriched for actives.
Labels: active, inactive

>  <compound>
Cc1nn(C(=O)c2ccoc2C)c(N)c1-c1ccccc1

>  <classification>
active

$$$$
>  <compound>
CSc1ncc(C(=O)NCCCc2ccccc2)c(C)n1

>  <classification>
inactive

$$$$
>  <compound>
CCn1c(CNC(=O)C23CC4CC(CC(C4)C2)C3)nnc1SCC(=O)Nc1ccc(OC)cc1

>  <classification>
inactive

$$$$
>  <compound>
Cc1ccc(Cc2nc3ccccc3nc2SCC(=O)Nc2cccc(C(F)(F)F)c2)cc1

>  <classification>
inactive

$$$$
>  <compound>
COc1ccc(N2CCN(CCNC(=O)c3nnc(Cc4c(F)cccc4Cl)o3)CC2)cc1

>  <classification>
inactive

$$$$
>  <compound>
O=C(/C=C/c1cnc2ccccc2n1)NC1CCCCCC1

>  <classification>
active

$$$$
>  <compound>
CC1=Nc2cc(C(=O)NCc3ccc(C)cc3)ccc2Sc2ccc(Cl)cc21

>  <classification>
inactive

$$$$
>  <compound>
Cc1ccccc1CNC(=O)c1ccc(NC(=O)N2CCCCc3ccccc32)cc1

>  <classification>
inactive

$$$$
>  <compound>
Cc1cc(=O)n(CC(=O)Nc2cccc([N+](=O)[O-])c2)c(-n2nc(C)cc2C)n1

>  <classification>
inactive

$$$$
>  <compound>
CCc1cc2c(cc(C(=O)OC)n2Cc2nc(-c3ccc(C)cc3)oc2C)s1

>  <classification>
inactive

$$$$
>  <compound>
CC(C)Cn1c(N)c(C(=O)COC(=O)C2CCCN2C(=O)c2cccs2)c(=O)n(C)c1=O (stereo not drawn)

>  <classification>
inactive

$$$$
>  <compound>
CCc1c(C)nc2cc(C)[nH]n2c1=O

>  <classification>
inactive

$$$$
>  <compound>
CN1C(=O)c2cccc3c(N)ccc(c23)C1=O

>  <classification>
inactive

$$$$
>  <compound>
CC(C)NC(=O)c1nn(-c2ccccc2F)nc1CO

>  <classification>
inactive

$$$$
>  <compound>
COc1ccccc1CN1CCC(CNC(=O)c2cnn(-c3ccccc3Cl)c2C2CCN(C(=O)OC(C)(C)C)CC2)CC1

>  <classification>
inactive

$$$$
>  <compound>
O=C(CN1C(=O)COc2ccc(S(=O)(=O)N3CCOCC3)cc21)N1CCN(c2cccc(Cl)c2)CC1

>  <classification>
inactive

$$$$
>  <compound>
O=C(NCc1ccccc1Cl)C1=Cc2cc(Br)ccc2OC1

>  <classification>
inactive

$$$$
>  <compound>
Cc1nc(CNS(=O)(=O)c2ccc(Oc3ccccc3)cc2)cs1

>  <classification>
inactive

$$$$
>  <compound>
O=C(NCCc1ccccn1)c1cc(-c2ccc(Cl)cc2)nc2ccccc12

>  <classification>
active

$$$$
>  <compound>
COc1ccccc1CNC(=O)c1ccc(NC(=O)N2CC(C)Sc3ccccc32)cc1 (stereo not drawn)

>  <classification>
inactive

$$$$
>  <compound>
Cc1ccccc1-c1nc2scc(CCNC(=O)C(=O)Nc3ccc(F)cc3F)n2n1

>  <classification>
inactive

$$$$
>  <compound>
COC(=O)c1c(NC(=O)CCCOc2ccccc2)sc2c1CCC(C)C2 (stereo not drawn)

>  <classification>
inactive

$$$$
>  <compound>
Cc1ccc2nc(-c3ccc(SCC(=O)Nc4cc(C)on4)nc3)[nH]c2c1

>  <classification>
active

$$$$
>  <compound>
CC(=O)Nc1cc(C(=O)NCc2ccc(F)cc2Cl)ccc1Sc1ccc(Cl)cc1

>  <classification>
inactive

$$$$
>  <compound>
O=C(NCCc1ccccn1)c1cccnc1Oc1ccc(Cl)cc1

>  <classification>
inactive

$$$$
>  <compound>
C=CCc1c(C)nc2cc(-c3ccccc3)[nH]n2c1=O

>  <classification>
active

$$$$
>  <compound>
Cc1cccc(NC(=O)CN2CCN(C(=O)C3CCN(C(=O)/C=C/c4ccccc4)CC3)CC2)c1C

>  <classification>
inactive

$$$$
>  <compound>
CCCC(=O)Nc1cccc(NC(=S)NC(=O)C(C)Oc2ccc(Cl)cc2Cl)c1 (stereo not drawn)

>  <classification>
inactive

$$$$
>  <compound>
COc1ccccc1CNc1nc2ccc(Cl)cc2n2cnnc12

>  <classification>
inactive

$$$$
>  <compound>
CCOC(=O)c1c(N)nn(C(=O)c2ccccc2)c1-c1ccccc1

>  <classification>
inactive

$$$$
>  <compound>
COc1cc(NC(=O)CN2CCN(S(=O)(=O)c3ccc(Br)cc3)CC2)cc(OC)c1

>  <classification>
inactive

$$$$
>  <compound>
Cc1nc2c(-c3ccccc3)c(C)[nH]n2c(=O)c1Cl

>  <classification>
inactive

$$$$
>  <compound>
CCCCN1Cc2c(nc3cc(-c4ccccc4)[nH]n3c2=O)C1=O

>  <classification>
active

$$$$
>  <compound>
OCC[C@H]1C[C@@H](O)[C@H](O)[C@@]2(OCCc3ccccc32)O1

>  <classification>
inactive

$$$$
>  <compound>
Cc1ccc(SCCC(=O)Nc2cc(C)on2)cc1

>  <classification>
inactive

$$$$
>  <compound>
O=C(O)c1ccc2c3c(cccc13)C(=O)N(OS(=O)(=O)c1ccccc1)C2=O

>  <classification>
active

$$$$
>  <compound>
O=C(COc1cc(Cl)c(Cl)cc1Cl)NCCc1ccccn1

>  <classification>
inactive

$$$$
>  <compound>
CSCCC(NS(=O)(=O)c1ccc2c(c1)oc(=O)n2C)C(=O)NC1CCCc2ccccc21 (stereo not drawn)

>  <classification>
inactive

$$$$
>  <compound>
O=C(Cn1c(-c2cncs2)nc2ccccc21)NC1CCCC1

>  <classification>
inactive

$$$$
>  <compound>
Cc1nc2scc(-c3cccs3)c2c(=O)n1N

>  <classification>
inactive

$$$$
>  <compound>
C=CCNC(=S)N1CCN(CCN=Cc2c(C)[nH]n(-c3ccc([N+](=O)[O-])cc3)c2=O)CC1

>  <classification>
inactive

$$$$
>  <compound>
COc1ccccc1N1CCN(CCCNC(=O)c2cnn(-c3ccccc3Cl)c2C2CCN(C(=O)OC(C)(C)C)CC2)CC1

>  <classification>
inactive

$$$$
>  <compound>
O=C(CSc1nnc2c(n1)[nH]c1ccccc12)NC1CCCCC1

>  <classification>
inactive

$$$$
